Target: human STING (Homo sapiens, UniProt Q86WV6, G230A/H232R/R293Q/R71H)
Sequence (Q86WV6 whole entry R71H/G230A/H232R/R293Q): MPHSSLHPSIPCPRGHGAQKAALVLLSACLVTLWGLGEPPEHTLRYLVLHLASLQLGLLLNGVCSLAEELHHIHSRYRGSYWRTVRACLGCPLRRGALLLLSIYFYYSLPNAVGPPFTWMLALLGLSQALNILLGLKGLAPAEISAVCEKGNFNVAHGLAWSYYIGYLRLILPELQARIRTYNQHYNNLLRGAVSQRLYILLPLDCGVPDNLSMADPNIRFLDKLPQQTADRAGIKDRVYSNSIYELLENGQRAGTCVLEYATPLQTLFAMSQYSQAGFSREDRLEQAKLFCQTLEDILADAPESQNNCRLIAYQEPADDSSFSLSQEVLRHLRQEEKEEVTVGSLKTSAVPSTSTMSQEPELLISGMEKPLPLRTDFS
Experiment: Activation of human STING signaling in permeabilized THP1-Dual cells, IRF3 induction
Details: digitonin-permeabilized THP1-Dual cells, 30 minutes on ice then 24 h
pEC50: −log10 of the molar value.
attribute.measured: pEC50

> print(dat)
                         structure.notation  recorded.measurement
1  O=C(O)CCC(=O)c1cc2ccc(CNC(=S)NCc3ccc4cc(C(=O)CCC(=O)O)sc4c3)cc2s1                ≤ 5.00
2  O=C(O)CCC(=O)c1nc2ccc(-c3ccccc3-c3ccc4nc(C(=O)CCC(=O)O)sc4c3)cc2s1                ≤ 5.00
3  O=C(O)CCC(=O)c1cc2ccc(/C=C\c3ccc4cc(C(=O)CCC(=O)O)sc4c3)cc2s1                ≤ 5.00
4  O=C(O)CCC(=O)c1cc2ccc(-c3ccccc3-c3ccc4cc(C(=O)CCC(=O)O)sc4c3)cc2s1          5.00 to 6.00
5  O=C(O)CCC(=O)c1cc2ccc(NC(=O)Nc3ccc4cc(C(=O)CCC(=O)O)sc4c3)cc2s1                ≤ 5.00
6  O=C(O)CCC(=O)c1nc2ccc(/C=C\c3ccc4nc(C(=O)CCC(=O)O)sc4c3)cc2s1                ≤ 5.00

----------
Quick list: EC50 per entry.
Biological target: R232 hSTING variant (Homo sapiens, UniProt Q86WV6, H232R)
Sequence (Q86WV6 whole entry H232R): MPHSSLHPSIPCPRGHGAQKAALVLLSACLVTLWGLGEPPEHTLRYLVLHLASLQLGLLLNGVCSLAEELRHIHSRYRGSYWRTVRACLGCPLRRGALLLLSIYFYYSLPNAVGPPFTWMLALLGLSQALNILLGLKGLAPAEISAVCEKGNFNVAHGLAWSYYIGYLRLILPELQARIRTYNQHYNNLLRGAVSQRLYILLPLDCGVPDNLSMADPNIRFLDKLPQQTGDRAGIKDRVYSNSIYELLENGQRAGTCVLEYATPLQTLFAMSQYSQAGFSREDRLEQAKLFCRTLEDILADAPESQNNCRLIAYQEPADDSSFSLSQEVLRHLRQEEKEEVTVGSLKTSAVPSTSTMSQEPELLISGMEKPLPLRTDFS
Experiment: IRF3 reporter induction in THP1-Dual KI-hSTING-R232 Cells
Details: THP1-Dual KI-hSTING-R232 Cells (R232 haplotype)
Procedure: THP1-Dual™ Human Monocytes cells with the homozygous HAQ allele, known to be a natural variant allele of STING occurring in ˜20% of the human population (Invivogen) have been engineered with two independent gene reporter systems: a secreted embryonic alkaline phosphatase (SEAP) reporter gene for NFkB activity, and secreted luciferase reporter for […] (IRF3) activity were used. […] NFkB levels were evaluated using a spectrophotometer at 620-655 nm. […]
attribute.measured: EC50

> print(dat)
                                   molecule  recorded.measurement
1  COc1cc2sc(C(=O)CCC(=O)O)cc2c(F)c1OCc1ccccc1COc1c(OC)cc2sc(C(=O)CCC(=O)O)cc2c1F [Compound 211]             < 1000 nM
2  COc1cc2sc(C(=O)CCC(=O)O)cc2c(F)c1OC/C=C/COc1c(OC)cc2sc(C(=O)CCC(=O)O)cc2c1F [Compound 203]      1000 to 10000 nM
3  COc1cc2sc(C(=O)CCC(=O)O)cc2c(F)c1OCC(=CCO)COc1c(OC)cc2sc(C(=O)CCC(=O)O)cc2c1F [Compound 210]             < 1000 nM
4  COc1cc2sc(C(=O)CCC(=O)O)cc2cc1/C=C/C(=O)Nc1cc2cc(C(=O)CCC(=O)O)sc2cc1OC [Compound 229]            ≥ 10000 nM
5  COc1cc2sc(C(=O)CCC(=O)O)cc2cc1CCC(=O)Nc1cc2cc(C(=O)CCC(=O)O)sc2cc1OC [Compound 219]            ≥ 10000 nM
6  C=C(COc1cc2cc(C(=O)CCC(=O)O)sc2cc1OC)COc1c(OC)cc2sc(C(=O)CCC(=O)O)cc2c1F [Compound 207]             < 1000 nM
